- Test parameters: 343.15 K; 4000 kPa; Liquid
Assay endpoint: mass density (kg/m3)
Answers are plain numbers, in kg/m3.

Here's what some known entries look like.
{"columns": ["Molecule", "mass density (kg/m3)"],
 "data": [
  ["CCCCCCn1cc[n+](C)c1.F[P-](F)(F)(F)(F)F [1-hexyl-3-methylimidazolium hexafluorophosphate]", 1258.6],
  ["CCCCCCCC[n+]1ccn(C)c1.F[B-](F)(F)F [1-methyl-3-octylimidazolium tetrafluoroborate]", 1073.7],
  ["CCCCn1cc[n+](C)c1C.F[P-](F)(F)(F)(F)F [1-butyl-2,3-dimethylimidazolium hexafluorophosphate]", 1315.8],
  ["CCCCn1cc[n+](C)c1.O=S(=O)([O-])C(F)(F)F [1-butyl-3-methylimidazolium trifluoromethanesulfonate]", 1265.2],
  ["CCCCn1cc[n+](C)c1.F[B-](F)(F)F [1-butyl-3-methylimidazolium tetrafluoroborate]", 1170.3]
]}

Look up and report measured mass density for this entry: CCCCCCCC[n+]1ccn(C)c1.F[P-](F)(F)(F)(F)F [1-octyl-3-methylimidazolium hexafluorophosphate]
1203.6

* * *

Assignment: determine reported mass density for the given compounds.
- Test parameters: 293.15 K; 100 kPa; Liquid
Numbers only, in kg/m3.

{"columns": ["Compound", "mass density / kg/m3"],
 "data": [
  ["CCCCn1cc[n+](C)c1.O=S(=O)([O-])C(F)(F)F [1-butyl-3-methylimidazolium trifluoromethanesulfonate]", 1306.1],
  ["CCCCCCCC[n+]1ccn(C)c1.F[P-](F)(F)(F)(F)F [1-octyl-3-methylimidazolium hexafluorophosphate]", 1242.4],
  ["CCCCn1cc[n+](C)c1.F[B-](F)(F)F [1-butyl-3-methylimidazolium tetrafluoroborate]", 1206.9]
]}

Please give mass density, item by item, for the list that follows.
1. CCCCCCCC[n+]1ccn(C)c1.F[B-](F)(F)F [1-methyl-3-octylimidazolium tetrafluoroborate]
2. CCCCCCn1cc[n+](C)c1.F[P-](F)(F)(F)(F)F [1-hexyl-3-methylimidazolium hexafluorophosphate]

1108.7
1299.8

* * *

Record form. Attribute: mass density. Fill in for each entry.
- Test parameters: 293.15 K; 1000 kPa; Liquid
One number for each entry, in kg/m3.

{"columns": ["Molecule", "Unit descriptor", "Test value"],
 "data": [
  ["CCCCCCn1cc[n+](C)c1.F[P-](F)(F)(F)(F)F [1-hexyl-3-methylimidazolium hexafluorophosphate]", "kg/m3", 1300.3],
  ["CCCCCCCC[n+]1ccn(C)c1.F[B-](F)(F)F [1-methyl-3-octylimidazolium tetrafluoroborate]", "kg/m3", 1109.1],
  ["CCCCn1cc[n+](C)c1.O=S(=O)([O-])C(F)(F)F [1-butyl-3-methylimidazolium trifluoromethanesulfonate]", "kg/m3", 1306.6],
  ["CCCCCCCC[n+]1ccn(C)c1.F[P-](F)(F)(F)(F)F [1-octyl-3-methylimidazolium hexafluorophosphate]", "kg/m3", 1242.9]
]}

Return value of mass density for input CCCCn1cc[n+](C)c1.F[B-](F)(F)F [1-butyl-3-methylimidazolium tetrafluoroborate] , no commentary.
1207.3

* * *

Please go through the items and note down their mass density.
- Test parameters: 313.15 K; 100 kPa; Liquid
One number for each entry, in kg/m3.

{"columns": ["Compound", "mass density [kg/m3]"],
 "data": [
  ["CCCCCCn1cc[n+](C)c1.F[P-](F)(F)(F)(F)F [1-hexyl-3-methylimidazolium hexafluorophosphate]", 1281.5],
  ["CCCCn1cc[n+](C)c1.O=S(=O)([O-])C(F)(F)F [1-butyl-3-methylimidazolium trifluoromethanesulfonate]", 1287.6]
]}

State the recorded mass density for every item in the following list.
1. CCCCn1cc[n+](C)c1C.F[P-](F)(F)(F)(F)F [1-butyl-2,3-dimethylimidazolium hexafluorophosphate]
2. CCCCCCCC[n+]1ccn(C)c1.F[B-](F)(F)F [1-methyl-3-octylimidazolium tetrafluoroborate]
3. CCCCCCCC[n+]1ccn(C)c1.F[P-](F)(F)(F)(F)F [1-octyl-3-methylimidazolium hexafluorophosphate]
4. CCCCn1cc[n+](C)c1.F[B-](F)(F)F [1-butyl-3-methylimidazolium tetrafluoroborate]

1: 1339.6; 2: 1092.9; 3: 1225.3; 4: 1190.8
